Target: UBE2E3
Test: reporter assay of Huesken 2005; note: test concentration or dose not given here
Details: siRNA
Oligonucleotides are written 5' to 3', each unit as a sugar letter and its base; * is a phosphorothioate linkage, no mark a phosphodiester; rarer units and linkages stand in square brackets, end groups in braces. Plain capitals give the bases only. d = 2'-deoxy (DNA); r = 2'-OH (RNA)
readoutType: normalised inhibition (eCFP-eYFP dual reporter) (%)
// return numeric value only (unit: %, not printed)

Name the recorded normalised inhibition (eCFP-eYFP dual reporter) for sense rArArCrArGrUrCrArGrGrGrArGrUrCrArUrCrUdTdT / antisense rArGrArUrGrArCrUrCrCrCrUrGrArCrUrGrUrUdGdA . 58.5

Name the recorded normalised inhibition (eCFP-eYFP dual reporter) for sense rUrCrArGrGrGrArGrUrCrArUrCrUrGrUrCrUrGdTdT / antisense rCrArGrArCrArGrArUrGrArCrUrCrCrCrUrGrAdCdT . 49

Name the recorded normalised inhibition (eCFP-eYFP dual reporter) for sense rArCrArUrCrArArCrArGrUrCrArGrGrGrArGrUdTdT / antisense rArCrUrCrCrCrUrGrArCrUrGrUrUrGrArUrGrUdTdG . 69.9

* * *

Biological target: UBE2N
Assay: reporter assay of Huesken 2005
Details: siRNA
Oligonucleotides are given in HELM: sugar(base)linkage, 5' to 3'; d 2'-deoxyribose, r ribose, m 2'-O-methylribose, p phosphate. ss, as = sense and antisense strand
For each record, write down the corresponding normalised inhibition (eCFP-eYFP dual reporter).
// return numeric value only (unit: %, not printed)

Name the recorded normalised inhibition (eCFP-eYFP dual reporter) for RNA1{r(A)p.r(G)p.r(C)p.r(G)p.r(G)p.r(A)p.r(G)p.r(C)p.r(A)p.r(G)p.r(U)p.r(G)p.r(G)p.r(A)p.r(A)p.r(G)p.r(A)p.r(C)p.r(C)p.d(T)p.d(T)}|RNA2{r(G)p.r(G)p.r(U)p.r(C)p.r(U)p.r(U)p.r(C)p.r(C)p.r(A)p.r(C)p.r(U)p.r(G)p.r(C)p.r(U)p.r(C)p.r(C)p.r(G)p.r(C)p.r(U)p.d(A)p.d(C)}$$$RNA1{StrandType:ss}|RNA2{StrandType:as}$ . 43.9

Name the recorded normalised inhibition (eCFP-eYFP dual reporter) for RNA1{r(A)p.r(U)p.r(U)p.r(U)p.r(U)p.r(C)p.r(A)p.r(U)p.r(G)p.r(U)p.r(G)p.r(G)p.r(U)p.r(C)p.r(A)p.r(U)p.r(U)p.r(G)p.r(C)p.d(T)p.d(T)}|RNA2{r(G)p.r(C)p.r(A)p.r(A)p.r(U)p.r(G)p.r(A)p.r(C)p.r(C)p.r(A)p.r(C)p.r(A)p.r(U)p.r(G)p.r(A)p.r(A)p.r(A)p.r(A)p.r(U)p.d(A)p.d(A)}$$$RNA1{StrandType:ss}|RNA2{StrandType:as}$ . 47.1

Name the recorded normalised inhibition (eCFP-eYFP dual reporter) for RNA1{r(U)p.r(U)p.r(U)p.r(C)p.r(A)p.r(U)p.r(G)p.r(U)p.r(G)p.r(G)p.r(U)p.r(C)p.r(A)p.r(U)p.r(U)p.r(G)p.r(C)p.r(U)p.r(G)p.d(T)p.d(T)}|RNA2{r(C)p.r(A)p.r(G)p.r(C)p.r(A)p.r(A)p.r(U)p.r(G)p.r(A)p.r(C)p.r(C)p.r(A)p.r(C)p.r(A)p.r(U)p.r(G)p.r(A)p.r(A)p.r(A)p.d(A)p.d(T)}$$$RNA1{StrandType:ss}|RNA2{StrandType:as}$ . 39.8

Name the recorded normalised inhibition (eCFP-eYFP dual reporter) for RNA1{r(C)p.r(C)p.r(U)p.r(A)p.r(A)p.r(U)p.r(G)p.r(U)p.r(A)p.r(G)p.r(A)p.r(C)p.r(A)p.r(A)p.r(G)p.r(U)p.r(U)p.r(G)p.r(G)p.d(T)p.d(T)}|RNA2{r(C)p.r(C)p.r(A)p.r(A)p.r(C)p.r(U)p.r(U)p.r(G)p.r(U)p.r(C)p.r(U)p.r(A)p.r(C)p.r(A)p.r(U)p.r(U)p.r(A)p.r(G)p.r(G)p.d(A)p.d(T)}$$$RNA1{StrandType:ss}|RNA2{StrandType:as}$ . 69.4

Name the recorded normalised inhibition (eCFP-eYFP dual reporter) for RNA1{r(A)p.r(U)p.r(G)p.r(U)p.r(C)p.r(U)p.r(A)p.r(G)p.r(A)p.r(U)p.r(A)p.r(U)p.r(U)p.r(U)p.r(U)p.r(G)p.r(A)p.r(A)p.r(A)p.d(T)p.d(T)}|RNA2{r(U)p.r(U)p.r(U)p.r(C)p.r(A)p.r(A)p.r(A)p.r(A)p.r(U)p.r(A)p.r(U)p.r(C)p.r(U)p.r(A)p.r(G)p.r(A)p.r(C)p.r(A)p.r(U)p.d(A)p.d(T)}$$$RNA1{StrandType:ss}|RNA2{StrandType:as}$ . 75.9

Name the recorded normalised inhibition (eCFP-eYFP dual reporter) for RNA1{r(A)p.r(G)p.r(A)p.r(U)p.r(A)p.r(U)p.r(U)p.r(U)p.r(U)p.r(G)p.r(A)p.r(A)p.r(A)p.r(G)p.r(A)p.r(U)p.r(A)p.r(A)p.r(G)p.d(T)p.d(T)}|RNA2{r(C)p.r(U)p.r(U)p.r(A)p.r(U)p.r(C)p.r(U)p.r(U)p.r(U)p.r(C)p.r(A)p.r(A)p.r(A)p.r(A)p.r(U)p.r(A)p.r(U)p.r(C)p.r(U)p.d(A)p.d(G)}$$$RNA1{StrandType:ss}|RNA2{StrandType:as}$ . 57.1

Name the recorded normalised inhibition (eCFP-eYFP dual reporter) for RNA1{r(C)p.r(C)p.r(A)p.r(G)p.r(A)p.r(U)p.r(G)p.r(A)p.r(G)p.r(A)p.r(G)p.r(C)p.r(A)p.r(A)p.r(C)p.r(G)p.r(C)p.r(C)p.r(C)p.d(T)p.d(T)}|RNA2{r(G)p.r(G)p.r(G)p.r(C)p.r(G)p.r(U)p.r(U)p.r(G)p.r(C)p.r(U)p.r(C)p.r(U)p.r(C)p.r(A)p.r(U)p.r(C)p.r(U)p.r(G)p.r(G)p.d(T)p.d(T)}$$$RNA1{StrandType:ss}|RNA2{StrandType:as}$ . 65.8

Name the recorded normalised inhibition (eCFP-eYFP dual reporter) for RNA1{r(U)p.r(A)p.r(U)p.r(U)p.r(C)p.r(C)p.r(U)p.r(U)p.r(C)p.r(C)p.r(A)p.r(G)p.r(A)p.r(A)p.r(G)p.r(A)p.r(A)p.r(U)p.r(A)p.d(T)p.d(T)}|RNA2{r(U)p.r(A)p.r(U)p.r(U)p.r(C)p.r(U)p.r(U)p.r(C)p.r(U)p.r(G)p.r(G)p.r(A)p.r(A)p.r(G)p.r(G)p.r(A)p.r(A)p.r(U)p.r(A)p.d(G)p.d(T)}$$$RNA1{StrandType:ss}|RNA2{StrandType:as}$ . 83

Name the recorded normalised inhibition (eCFP-eYFP dual reporter) for RNA1{r(U)p.r(U)p.r(G)p.r(C)p.r(U)p.r(G)p.r(G)p.r(C)p.r(C)p.r(C)p.r(U)p.r(C)p.r(A)p.r(G)p.r(G)p.r(A)p.r(U)p.r(U)p.r(C)p.d(T)p.d(T)}|RNA2{r(G)p.r(A)p.r(A)p.r(U)p.r(C)p.r(C)p.r(U)p.r(G)p.r(A)p.r(G)p.r(G)p.r(G)p.r(C)p.r(C)p.r(A)p.r(G)p.r(C)p.r(A)p.r(A)p.d(T)p.d(G)}$$$RNA1{StrandType:ss}|RNA2{StrandType:as}$ . 50.2

Name the recorded normalised inhibition (eCFP-eYFP dual reporter) for RNA1{r(U)p.r(G)p.r(A)p.r(U)p.r(C)p.r(C)p.r(A)p.r(U)p.r(U)p.r(A)p.r(G)p.r(C)p.r(A)p.r(A)p.r(A)p.r(U)p.r(G)p.r(A)p.r(U)p.d(T)p.d(T)}|RNA2{r(A)p.r(U)p.r(C)p.r(A)p.r(U)p.r(U)p.r(U)p.r(G)p.r(C)p.r(U)p.r(A)p.r(A)p.r(U)p.r(G)p.r(G)p.r(A)p.r(U)p.r(C)p.r(A)p.d(T)p.d(C)}$$$RNA1{StrandType:ss}|RNA2{StrandType:as}$ . 70.2
